# experimental-target: IGF-1R Ba/F3 (Homo sapiens)
# Construct: fused on or other part: TEL- (or BCR-) IGF-1R in Ba/F3: the kinase part holds the site
# Sequence (P08069 999-1274 limits assumed): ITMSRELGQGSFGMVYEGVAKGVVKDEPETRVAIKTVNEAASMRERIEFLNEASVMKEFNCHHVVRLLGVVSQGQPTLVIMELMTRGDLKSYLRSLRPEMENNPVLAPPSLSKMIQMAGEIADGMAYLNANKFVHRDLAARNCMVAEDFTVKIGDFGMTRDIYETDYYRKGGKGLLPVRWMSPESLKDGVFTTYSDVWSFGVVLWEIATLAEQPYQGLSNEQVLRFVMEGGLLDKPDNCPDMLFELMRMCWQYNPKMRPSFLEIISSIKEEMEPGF
# experiment: Ba/F3 Cell Viability Inhibition Assay (IGF-1R Ba/F3)
# run-conditions: Tel-TK transformed Ba/F3 cells, 48 hours, Britelite luminescence
test-readout: pIC50
Units for pIC50: none; it is -log10 of a concentration expressed in mol/L.

Could you tell me which pIC50 is on file for "CNC(=O)CN1CCC(c2cc(F)c(Nc3ncc(Cl)c(Nc4cc(C5CC5)[nH]n4)n3)cc2C)CC1" ?
7.38

Could you tell me which pIC50 is on file for "CNC(=O)CN1CCC(c2cc(C)c(Nc3ncc(C(F)(F)F)c(Nc4cc(C)[nH]n4)n3)cc2C)CC1" ?
7.82

Could you tell me which pIC50 is on file for "Cc1cc(Nc2nc(Nc3cc(C)c(C4CCN([C@@H](C)C(N)=O)CC4)cc3C)ncc2Cl)n[nH]1" ?
8.15

Recorded values, source patent US8859574B2.
